readoutType: melting point

O=S(=O)(c1ccc(Cl)cc1)C(c1cc(F)ccc1F)c1cc(Cl)ncc1Cl (centres unmarked) (hydrate or solvate)    147 to 148 °C
CC1CCCC1(c1cc(F)ccc1F)S(=O)(=O)c1ccc(Cl)cc1 (centres unmarked)    105 to 109 °C
COc1cccnc1C(c1cc(F)ccc1F)S(=O)(=O)c1ccc(Cl)cc1 (centres unmarked)    184 to 185 °C
O=S(=O)(c1ccc(Cl)cc1)C(Cc1ccccc1CO)c1cc(F)ccc1F (centres unmarked)    107 to 108 °C
CCCCC(c1ccncc1)S(=O)(=O)c1ccc(Cl)cc1 (centres unmarked)    109 to 111 °C

Which melting point value belongs to CS(=O)(=O)CCCCC(c1cc(F)cc(F)c1)S(=O)(=O)c1ccc(Cl)cc1 (centres unmarked) ?
126 to 127 °C

Which melting point value belongs to O=S(=O)(c1ccc(Cl)cc1)C(CCCCCBr)c1cc(F)ccc1F (centres unmarked) ?
77 to 79 °C

Which melting point value belongs to O=C(NCCCC(c1cc(F)ccc1F)S(=O)(=O)c1ccc(Cl)cc1)OCCI (centres unmarked) ?
100 to 101 °C

Which melting point value belongs to `O=C(c1cccnc1)N1CCC(c2cc(F)ccc2F)(S(=O)(=O)c2ccc(Cl)cc2)CC1` ?
119 to 124 °C

Which melting point value belongs to CCOC(=O)CC(c1cc(F)ccc1F)S(=O)(=O)c1ccc(Cl)cc1 (centres unmarked) ?
99.5 to 100.5 °C

Which melting point value belongs to CCCCCC(c1cc(F)ccc1F)S(=O)(=O)c1ccc(Cl)cc1 (centres unmarked) ?
68 to 69 °C

Which melting point value belongs to O=S(=O)(c1ccc(Cl)cc1)C(c1ccc(CO)cn1)c1cc(F)ccc1F (centres unmarked) ?
151 to 152 °C

Which melting point value belongs to O=S(=O)(c1ccc(Cl)cc1)C(CCOCCO)c1cc(F)ccc1F (centres unmarked) ?
41 to 46 °C

Which melting point value belongs to `O=S(=O)(c1ccc(Cl)cc1)C1(c2cc(F)ccc2F)CCSCC1` ?
188 to 190 °C
